# target-or-system: Gonadotropin-releasing hormone receptor (Rattus norvegicus) (UniProt P30969)
# Sequence (P30969 whole entry): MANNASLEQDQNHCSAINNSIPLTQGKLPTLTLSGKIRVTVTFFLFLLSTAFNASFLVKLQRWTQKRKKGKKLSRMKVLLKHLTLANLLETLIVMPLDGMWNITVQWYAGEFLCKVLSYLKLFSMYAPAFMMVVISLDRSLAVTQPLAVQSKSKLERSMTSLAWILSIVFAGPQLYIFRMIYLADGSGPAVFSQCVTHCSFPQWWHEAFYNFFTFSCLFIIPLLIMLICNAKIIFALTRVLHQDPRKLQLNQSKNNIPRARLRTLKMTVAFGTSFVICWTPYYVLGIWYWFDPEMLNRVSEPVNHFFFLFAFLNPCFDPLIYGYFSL
# test: In vitro inhibition of LH release was determined in rat pituitary cells at a dose of 0.1 ug of analogue and 1 ng of LHRH
# Format: functional, cell-based
# run-parameters: Pituitary gland cell
attribute-measured: Activity
Answer with a number only.

| compound | attribute-measured | measured-result |
| --- | --- | --- |
| CC(=O)NC(Cc1ccc2ccccc2c1)C(=O)N[C@@H](CO)C(=O)N[C@@H](Cc1ccc(O)cc1)C(=O)NC(Cc1ccc2ccccc2c1)C(=O)N[C@@H](CC(C)C)C(=O)N[C@@H](CCCCNC(C)C)C(=O)N1CCC[C@H]1C(=O)N[C@H](C)C(N)=O (stereo in doubt) | Activity | 135 |
| CCNC(=O)[C@@H]1CCCN1C(=O)[C@H](CCCN=C(N)N)NC(=O)[C@H](CC(C)C)NC(=O)[C@@H](Cc1ccc2ccccc2c1)NC(=O)[C@H](Cc1ccc(O)cc1)NC(=O)[C@H](CO)NC(=O)[C@@H](Cc1ccc2ccccc2c1)NC(C)=O | Activity | 5 |
| CCNC(=O)[C@@H]1CCCN1C(=O)[C@H](CCCCNC(C)C)NC(=O)[C@H](CC(C)C)NC(=O)[C@H](CCCCNC(=O)c1ccccn1)NC(=O)[C@H](Cc1ccc(O)cc1)NC(=O)[C@H](CO)NC(=O)[C@H](Cc1ccc2ccccc2c1)NC(C)=O | Activity | 200 |

# next compound below
Q: Fill in: Activity of CC(=O)NC(Cc1ccc2ccccc2c1)C(=O)N[C@@H](CO)C(=O)N[C@@H](Cc1ccc(O)cc1)C(=O)NC(Cc1ccc2ccccc2c1)C(=O)N[C@@H](CC(C)C)C(=O)N[C@@H](CCCN=C(N)N)C(=O)N1CCC[C@H]1C(=O)N[C@H](C)C(N)=O (stereo in doubt) is ___
Ans: 37

src = ChEMBL document CHEMBL1128487
